System: A549
Test: Cytotoxicity assay (cell titer-glo and calcein AM), A549
Details: read-out: Cytotoxicity IC50, A549, calcein; A549; calcein AM readout; % error in parentheses
Below, each of the compounds is paired with its reported IC50 value.
attribute.measured: IC50 (µM)

compound	censor.symbol	val
COc1cc2c(c(OC)c1OC)-c1ccc(OC)c(=O)cc1[C@@H](NC(=O)CN(OC)[C@@H]1O[C@H](CN=[N+]=[N-])[C@H](O)[C@H](O)[C@H]1O)CC2 [Col43, 6-deoxy-6-azido-D-galactoside]	>	10
COc1cc2c(c(OC)c1OC)-c1ccc(OC)c(=O)cc1[C@@H](NC(=O)CN(OC)[C@@H]1OC[C@@H](O)[C@H](O)[C@H]1O)CC2 [Col4, D-xyloside]	>	10
COc1cc2c(c(OC)c1OC)-c1ccc(OC)c(=O)cc1[C@@H](NC(=O)CN(OC)[C@@H]1O[C@H](CO)[C@@H](O[C@H]3O[C@H](CO)[C@@H](O)[C@H](O)[C@H]3O)[C@H](O)[C@H]1O)CC2 [Col38, D-maltoside]	=	0.508
COc1cc2c(c(OC)c1OC)-c1ccc(OC)c(=O)cc1[C@@H](NC(=O)CN(OC)[C@@H]1O[C@H](CO)[C@@H](O[C@H]3O[C@H](CO)[C@@H](O[C@H]4O[C@H](CO)[C@@H](O)[C@H](O)[C@H]4O)[C@H](O)[C@H]3O)[C@H](O)[C@H]1O)CC2 [Col13, maltotrioside]	>	10
COc1cc2c(c(OC)c1OC)-c1ccc(OC)c(=O)cc1C(NC(=O)CN(OC)C1OC(C)C(O)C(O)C1O)CC2 [Col14, L-fucoside]	>	10
COc1cc2c(c(OC)c1OC)-c1ccc(OC)c(=O)cc1[C@@H](NC(=O)CN(OC)[C@@H]1O[C@H](CO)[C@@H](N=[N+]=[N-])[C@H](O)[C@H]1O)CC2 [Col44, 4-deoxy-4-azido-D-glucoside]	=	0.649
COc1cc2c(c(OC)c1OC)-c1ccc(OC)c(=O)cc1[C@@H](NC(=O)CN(OC)[C@@H]1O[C@H](C)[C@@H](O)[C@H](O)[C@H]1O)CC2 [Col2, 6-deoxy-D-glucoside]	=	7.94
COc1cc2c(c(OC)c1OC)-c1ccc(OC)c(=O)cc1C(NC(=O)CN(OC)C1OC(COCc3ccccc3)C(OCc3ccccc3)C1OCc1ccccc1)CC2 (stereo not shown)	=	0.062
COc1cc2c(c(OC)c1OC)-c1ccc(OC)c(=O)cc1C(NC(=O)CN(OC)C1OCC(O)C(O)C1O)CC2 [Col17, L-xyloside]	>	10
COc1cc2c(c(OC)c1OC)-c1ccc(OC)c(=O)cc1[C@@H](NC(=O)CN(OC)[C@@H]1O[C@H](CO)[C@@H](O)C[C@H]1O)CC2 [Col3, 3-deoxy-D-glucoside]	>	10
